Where do the numbers come from? From PubChem BioAssay AID1259407.

tested on: CCRIS mutagenicity, Ames/micronucleus/aberration tests; assay: CCRIS mutagenicity studies; conditions: Test System: AMES SALMONELLA TYPHIMURIUM; Strain/Indicator: TA104; Metabolic Activation: RAT LIVER S-9, AROCLOR 1254; Method: PREINCUBATION
Calls of active or inactive are those of the source. No rule for the calls is given here.
Thanks in advance; please answer with one of these: active, inactive

Tell me the assay call for CCC=O please.
inactive

Tell me the assay call for CC(C)(OO)c1ccccc1 please.
active

Tell me the assay call for CCn1cc(C(=O)O)c(=O)c2cnc(N3CCNCC3)nc21 please.
inactive

Tell me the assay call for CCn1cc(C(=O)O)c(=O)c2cc(F)c(N3CCNCC3)cc21 please.
active

====

test system: CCRIS mutagenicity, Ames/micronucleus/aberration tests; test: CCRIS mutagenicity studies; settings: Test System: AMES SALMONELLA TYPHIMURIUM; Strain/Indicator: TA98; Metabolic Activation: NONE; Method: PREINCUBATION
Activity calls are given as the source filed them. The rule behind the calls is not given here.
Thanks in advance; please answer with one of these: active, inactive

Tell me the assay call for CC(C)(C)c1cc(/C=C/c2cc(C(C)(C)C)c(O)c(C(C)(C)C)c2)cc(C(C)(C)C)c1O please.
inactive

Tell me the assay call for Sc1ccccc1 please.
inactive

Tell me the assay call for COC(=O)Nc1nc2ccccc2[nH]1 please.
inactive

Tell me the assay call for Cc1ccccc1N=Nc1ccc(N(C)C)cc1 please.
inactive

Tell me the assay call for C1COCCO1 please.
inactive

Tell me the assay call for N#Cc1cc([N+](=O)[O-])ccc1N please.
active

Tell me the assay call for O=[N+]([O-])c1cccc2nc3c([N+](=O)[O-])cccc3nc12 please.
inactive

Tell me the assay call for CC/C(=C(/CC)c1ccc(O)cc1)c1ccc(O)cc1 please.
inactive

Tell me the assay call for COC(=O)c1oc(NOC(C)=O)c(-c2ccccc2)c1-c1ccccc1 please.
inactive

Tell me the assay call for CCCCCCCCC/C=C/CC1CC(=O)OC1=O (stereo not drawn) please.
inactive

Tell me the assay call for CC/C(C)=N\O please.
inactive

Tell me the assay call for COC(=O)/C(C#N)=C/c1ccco1 please.
inactive

Tell me the assay call for O=[N+]([O-])c1cc([N+](=O)[O-])c2ccccc2c1 please.
active

====

test system: CCRIS mutagenicity, Ames/micronucleus/aberration tests; assay: CCRIS mutagenicity studies; settings: Test System: AMES SALMONELLA TYPHIMURIUM; Strain/Indicator: TA98; Metabolic Activation: RAT, LIVER, S-9, AROCLOR 1254; Method: STANDARD PLATE
Activity calls are given as the source filed them. How the calls were made is not given here.
Thanks in advance; please answer with one of these: active, inactive

Tell me the assay call for C=CC(=O)OCCCCC please.
inactive

Tell me the assay call for Cc1ccc(NS(=O)(=O)c2cccc3cccnc23)cc1 please.
inactive

Tell me the assay call for Cc1cc(C)c2c(ccc3ccccc32)c1 please.
inactive

Tell me the assay call for O=[N+]([O-])c1ccc2c3c4c(cccc4c4ccccc4c13)C1OC21 (stereo not drawn) please.
active

Tell me the assay call for Nc1ccc2cc(S(=O)(=O)O)c(N=Nc3ccc(N=Nc4ccccc4)cc3OCCO)c(O)c2c1 please.
active

Tell me the assay call for CCOCC=O please.
inactive

Tell me the assay call for Oc1ccc(O)c2c(O)c3ccccc3c(O)c12 please.
inactive

Tell me the assay call for O=[N+]([O-])c1cccc(NS(=O)(=O)c2cccc3cccnc23)c1 please.
inactive

Tell me the assay call for CC(NC(=O)COc1ccc(Cl)cc1Cl)C(=O)O (stereo not drawn) please.
inactive

Tell me the assay call for CC(=O)CC(=O)CCC(=O)O please.
inactive

Tell me the assay call for Oc1cc2ccccc2c2ccccc12 please.
inactive

Tell me the assay call for O=[N+]([O-])c1cc2c([nH]c3ccccc32)c([N+](=O)[O-])c1O please.
active

Tell me the assay call for CC(=O)Nc1ccc(O)cc1 please.
inactive

====

system: CCRIS mutagenicity, Ames/micronucleus/aberration tests; test: CCRIS mutagenicity studies; conditions: Test System: AMES SALMONELLA TYPHIMURIUM; Strain/Indicator: TA98; Metabolic Activation: NONE; Method: STANDARD PLATE
Calls of active or inactive are those of the source. No rule for the calls is given here.
Thanks in advance; please answer with one of these: Y for active, N for inactive

Tell me the assay call for NC(=O)NCC(=O)O please.
N

Tell me the assay call for Clc1ccc(N=Nc2ccc(Cl)c(Cl)c2)cc1Cl please.
N

Tell me the assay call for O=C(O)C(Cl)Cl please.
N

Tell me the assay call for CC1(C)[C@@H](O[C@H]2O[C@H](C(=O)O)[C@@H](O)[C@H](O)[C@H]2O[C@@H]2O[C@H](C(=O)O)[C@@H](O)[C@H](O)[C@H]2O)CC[C@]2(C)[C@H]3C(=O)C=C4[C@@H]5C[C@@](C)(C(=O)O)CC[C@]5(C)CC[C@@]4(C)[C@]3(C)CC[C@@H]12 please.
N

Tell me the assay call for N#Cc1cc(Br)c(O)c(Br)c1 please.
N

Tell me the assay call for CC1(c2ccccc2)C(=O)c2ccccc2N1[O] (centres undefined) please.
N

Tell me the assay call for C[C@H](CC1=C(C=O)CO[C@@H]1O)C1=CCC(C)(C)C1 please.
N

Tell me the assay call for CCC(CCC(C)O)COC(=O)c1ccccc1C(=O)O (centres undefined) please.
N

Tell me the assay call for CC(CN1CC(=O)NC(=O)C1)N1CC(=O)NC(=O)C1 (centres undefined) please.
N

Tell me the assay call for C=C(Cl)CCl please.
Y

Tell me the assay call for CCOCC=O please.
N

Tell me the assay call for CC(=O)O[C@@H]1[C@@H](O)[C@H](O[C@H]2[C@H](OC(=O)[C@H]3CC[C@@H]4[C@H](C3)O[C@@]3(C[C@H](OC(=O)/C=C/c5ccccc5)[C@H](C)CO3)[C@]43CO3)O[C@H](C)[C@@H](O)[C@@H]2OC(C)=O)O[C@H](C)[C@H]1O please.
N

Tell me the assay call for [Zn] please.
N

Tell me the assay call for O=C(O)COc1ccc(Cl)cc1 please.
N

Tell me the assay call for CC(=O)O[C@]1(C(C)=O)CC[C@H]2[C@@H]3C4OC4(Cl)C4=CC(=O)[C@@H]5C[C@@H]5[C@]4(C)[C@H]3CC[C@@]21C (some centres undefined) please.
N

Tell me the assay call for Cc1cc(Cc2cc(C)cc(C(C)(C)C)c2O)c(O)c(C(C)(C)C)c1 please.
N

Tell me the assay call for O=c1c(Cl)c(Cl)cnn1S(=O)(=O)c1ccc(Cl)cc1Cl please.
N

Tell me the assay call for C=CCCCCCCCC please.
N

Tell me the assay call for C/C=C/c1cc(OC)c(OC)cc1OC please.
N

Tell me the assay call for CC1(S(=O)(=O)O)CC(=O)c2ccccc2C1=O (centres undefined) (tested in a mixture with another compound) please.
N

Tell me the assay call for CS(C)=O please.
N

Tell me the assay call for O=C/C(=C(/Cl)C(=O)O)C(Cl)Cl please.
Y

Tell me the assay call for O=C(CCl)NCO please.
N

Tell me the assay call for O=[N+]([O-])c1cccc2[nH]c3ccccc3c12 please.
Y

====

tested on: CCRIS mutagenicity, Ames/micronucleus/aberration tests; assay: CCRIS mutagenicity studies; settings: Test System: AMES SALMONELLA TYPHIMURIUM; Strain/Indicator: TA1538; Metabolic Activation: RAT, LIVER, S-9, AROCLOR 1254; Method: STANDARD PLATE
Calls of active or inactive are those of the source. No rule for the calls is given here. Where a SMILES comes first, the peptide text is derived from it. [ ]: non-standard residue; d: D form. pGlu = O=C1CC[C@@H](C(=O)O)N1; Thz = O=C(O)[C@@H]1CSCN1
Thanks in advance; please answer with one of these: active, inactive

Tell me the assay call for Cn1c([N+](=O)[O-])cnc1C(O)c1cc(C(C)(C)C)cc(C(C)(C)C)c1O (configuration not stated) please.
inactive

Tell me the assay call for N#CCCNCCC#N please.
inactive

Tell me the assay call for Nc1c(O)cccc1[N+](=O)[O-] please.
inactive

Tell me the assay call for O=C1CC[C@@H](C(=O)N2CSC[C@H]2C(=O)O)N1 ([pGlu]-[Thz]-OH) please.
inactive

Tell me the assay call for CC(NC(=O)COc1ccc(Cl)cc1Cl)C(=O)O (configuration not stated) please.
inactive

Tell me the assay call for CN(C)C(=S)SSC(=S)N(C)C please.
active

Tell me the assay call for O=C1c2c(O)ccc(O)c2C(=O)C2C(O)=CC=C(O)C12 (configuration not stated) please.
inactive

Tell me the assay call for COc1cc2c(c3oc(=O)c4c(c13)CCC4=O)[C@@H]1C=CO[C@@H]1O2 please.
active

Tell me the assay call for CC[C@H](C)[C@@H]([C@@H](CC(=O)N1CCC[C@H]1[C@H](OC)[C@@H](C)C(=O)N[C@@H](Cc1ccccc1)c1nccs1)OC)N(C)C(=O)[C@@H](NC(=O)[C@H](C(C)C)N(C)C)C(C)C please.
inactive

Tell me the assay call for CCOP(=O)(OCC)O/C(=C\Cl)c1ccc(Cl)cc1Cl please.
inactive

Tell me the assay call for CC(=O)N(O)c1ccc([N+](=O)[O-])cc1 please.
active

Tell me the assay call for COc1c(N)cc(C)c(N)c1C please.
inactive

Tell me the assay call for Cc1cc(N)c(C)c([N+](=O)[O-])c1N please.
active

Tell me the assay call for Nc1nc(Cl)cc(Cl)n1 please.
inactive

Tell me the assay call for OC[C@H]1O[C@@H](n2cnc3c(NC[C@H](O)COc4cccc5ccccc45)ncnc32)[C@H](O)[C@@H]1O please.
inactive

Tell me the assay call for O=c1oc2cc([N+](=O)[O-])ccc2c2ccccc12 please.
active

Tell me the assay call for OCl please.
inactive

Tell me the assay call for Nc1ccc(S(=O)(=O)Nc2cnc3c(Cl)cccc3n2)cc1 please.
inactive

Tell me the assay call for Nc1cc(S(=O)(=O)O)cc2c1C(=O)/C(=N/Nc1ccc(-c3ccc(N/N=C4/C(=O)c5c(N)cc(S(=O)(=O)O)cc5C=C4S(=O)(=O)O)cc3)cc1)C(S(=O)(=O)O)=C2 please.
inactive

Tell me the assay call for Nc1ccc2cc(S(=O)(=O)O)c(N=Nc3ccc(N=Nc4ccccc4)cc3OCCO)c(O)c2c1 please.
active

Tell me the assay call for Cl/C=C/C[N+]12CN3CN(CN(C3)C1)C2 please.
inactive

Tell me the assay call for C=C(C)C(=O)OC(C)(C)C please.
inactive
